melting point values for the compounds below.

> print(dat)
                                   compound    assay.value
1         CC1(C)CCn2c(nc(-c3ccncn3)cc2=O)N1  265 to 267 °C
2        CC(C)(C)OC(=O)NC1CCN(Cc2ccccc2)CC1  112 to 120 °C
3  CCOC(=O)c1c(Cn2cncn2)nc2sc3c(c2c1-c1ccc(OC)c(OC)c1)CCCN3C(=O)OCc1ccccc1  184 to 185 °C

Bench note: what melting point did O=C1Nc2cccc(-c3ccoc3)c2C12COc1cc3c(cc12)OCO3 (centres undefined) show?
230 to 231 °C

Another compound: `O=C(c1cccs1)c1cnn2c(-c3cccc(-c4nnnn4CC4CCC4)c3)ccnc12`
204 °C

What would you report for `O=C(Cc1ccccn1)N1CCN(C(=O)Oc2ccc(Oc3ccc(C(F)(F)F)cn3)cc2)CC1` ?
143 to 146 °C

Try the compound COC(=O)CCCCCCCNC(=O)C(CO)NS(=O)(=O)c1ccc(Cl)cc1 (racemic)
88 to 92 °C

Again, but for `CC(C)(C)OC(=O)c1nc(-c2ccc(Cl)cc2Cl)n(-c2ccc(Cl)cc2)c1C#N`
210 to 212 °C

Next compound up: `O=c1[nH]c2ccccc2n1CCCN1CCC(OC(c2ccccc2)c2ccccc2)CC1`
149 °C
